Sourced from patent US20220033501A1

- test target: T1, human TIM-3 ECD (antigen protein of the affinity test) (human, UniProt Q8TDQ0 22-200)
- T1 sequence: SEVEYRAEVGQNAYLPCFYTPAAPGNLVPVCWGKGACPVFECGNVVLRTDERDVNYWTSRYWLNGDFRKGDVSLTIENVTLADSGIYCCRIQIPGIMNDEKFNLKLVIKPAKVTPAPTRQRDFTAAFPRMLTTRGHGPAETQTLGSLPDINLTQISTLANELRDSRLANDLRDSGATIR
- assay remarks: AHC sensor kinetics, antibody captured on sensor, antigen protein in solution, global 1:1 fit
# note: exactly 2 nM is not below, so it is N; use Y for Kd strictly under it

binder="fully human TIM-3 antibody 18D2H2 (antibody, human IgG4, V domains shown, also called antibody number 2) VH: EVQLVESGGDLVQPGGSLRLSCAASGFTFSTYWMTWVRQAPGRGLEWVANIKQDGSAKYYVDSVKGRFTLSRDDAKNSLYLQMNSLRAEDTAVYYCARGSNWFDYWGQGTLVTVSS VL: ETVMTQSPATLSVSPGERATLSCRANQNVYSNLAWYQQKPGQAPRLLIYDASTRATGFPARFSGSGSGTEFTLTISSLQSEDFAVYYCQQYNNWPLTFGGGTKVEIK" discrete_label=N
binder="fully human TIM-3 antibody 57F4E5 (antibody, human IgG4, V domains shown, also called antibody number 7) VH: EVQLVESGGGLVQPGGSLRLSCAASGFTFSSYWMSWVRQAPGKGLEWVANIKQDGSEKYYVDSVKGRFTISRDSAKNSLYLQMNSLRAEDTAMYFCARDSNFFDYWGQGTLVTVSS VL: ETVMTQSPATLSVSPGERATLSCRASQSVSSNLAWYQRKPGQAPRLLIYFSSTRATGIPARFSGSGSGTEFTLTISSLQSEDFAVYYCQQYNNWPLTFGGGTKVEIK" discrete_label=N
binder="fully human TIM-3 antibody 7A4F10 (antibody, human IgG4, V domains shown, also called antibody number 1) VH: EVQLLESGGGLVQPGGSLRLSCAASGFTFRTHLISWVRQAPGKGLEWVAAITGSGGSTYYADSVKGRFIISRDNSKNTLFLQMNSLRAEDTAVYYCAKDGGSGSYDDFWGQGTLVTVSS VL: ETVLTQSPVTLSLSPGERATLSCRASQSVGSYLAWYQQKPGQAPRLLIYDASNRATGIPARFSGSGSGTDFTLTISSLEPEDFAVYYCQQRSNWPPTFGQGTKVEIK" discrete_label=Y
binder="fully human TIM-3 antibody 39E5H1 (antibody, human IgG4, V domains shown, also called antibody number 6) VH: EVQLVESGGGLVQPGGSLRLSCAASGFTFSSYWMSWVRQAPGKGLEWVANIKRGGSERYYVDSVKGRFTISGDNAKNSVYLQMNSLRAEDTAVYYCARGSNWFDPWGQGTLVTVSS VL: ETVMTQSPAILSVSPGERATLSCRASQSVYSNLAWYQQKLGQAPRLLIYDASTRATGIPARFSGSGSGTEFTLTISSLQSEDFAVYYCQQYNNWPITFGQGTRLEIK" discrete_label=Y
binder="fully human TIM-3 antibody 34B6D8 (antibody, human IgG4, V domains shown, also called antibody number 5) VH: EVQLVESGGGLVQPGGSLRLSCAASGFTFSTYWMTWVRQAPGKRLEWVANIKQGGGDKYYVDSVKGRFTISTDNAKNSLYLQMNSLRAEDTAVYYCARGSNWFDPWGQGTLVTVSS VL: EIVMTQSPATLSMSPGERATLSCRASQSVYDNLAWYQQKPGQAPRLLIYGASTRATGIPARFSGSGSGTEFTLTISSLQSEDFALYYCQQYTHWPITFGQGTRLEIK" discrete_label=Y

Next item in the queue.
Consider fully human TIM-3 antibody 134H3G6 (antibody, human IgG4, V domains shown, also called antibody number 3) VH: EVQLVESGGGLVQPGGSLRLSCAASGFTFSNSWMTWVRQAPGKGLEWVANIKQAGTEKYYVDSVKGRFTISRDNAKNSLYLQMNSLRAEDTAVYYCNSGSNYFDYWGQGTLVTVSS VL: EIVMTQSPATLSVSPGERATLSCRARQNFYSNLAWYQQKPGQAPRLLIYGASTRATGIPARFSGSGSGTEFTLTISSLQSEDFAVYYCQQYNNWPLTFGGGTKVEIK . Does its Kd lie strictly below 2 nM?
N
